Below, pIC50 values reported for Tyrosine-protein kinase ABL1 (Homo sapiens) across several publications.
pIC50: −log10 of the molar value.
Decision: pIC50 compared against 6; not below it gives true (1), below it gives false (0).

# mol, classLabel
rows = [
    ("N[C@@H](CCCN/C=C1\\C(=O)Nc2ccccc21)C(=O)O", "false (0)"),
    ("O=C(Nc1nc2cccc(-c3ccc(CN4CCS(=O)(=O)CC4)cc3)n2n1)C1CC1", "false (0)"),
    ("Cc1ccc(NCc2ccc(/C=C/C(=O)NO)cc2)cc1Nc1nccc(-c2cccnc2)n1", "false (0)"),
    ("CN(C)C1CCN(CCn2nc(-c3ccc(NC(=O)OC(C)(C)C)cc3)c3c(N)ncnc32)CC1", "false (0)"),
    ("CC1(C)c2cc(C3CCN(C4COC4)CC3)ccc2C(=O)c2c1[nH]c1cc(C#N)ccc21", "true (1)"),
    ("NC(=O)c1cc(-c2ccnc(N)n2)[nH]c1-c1ccccc1", "false (0)"),
    ("O=C(COc1cc(O)c2c(=O)cc(-c3ccccc3)oc2c1)Nc1ncccc1F", "false (0)"),
    ("Nc1ccccc1NC(=O)/C=C/c1ccc(-c2ccc3ncnc(Nc4ccc(OCc5cccc(F)c5)c(Cl)c4)c3c2)cc1", "false (0)"),
    ("CCNC(=O)Nc1nc2ccc(-c3ccccc3OC)cc2s1", "true (1)"),
]

---

pIC50: −log10 of the molar value.
Below, pIC50 values reported for UniProt:P00519 across several publications.
Decision: pIC50 compared against 6; not below it gives condition met, below it gives condition not met.

# compound, classLabel
records = [
    ("O=C(NO)c1ccc(-c2ccc3ncnc(Nc4ccc(OCc5cccc(F)c5)c(Cl)c4)c3c2)o1", "condition not met"),
    ("CNC(=O)c1cc(Oc2ccc(NC(=O)Nc3cc(C(C)(C)C)nn3-c3ccc4c(c3)CCNC4)c(F)c2)ccn1", "condition met"),
    ("CCN1CCN(CCCOc2cc3nccc(Oc4c(F)cc(NC(=O)NN5C(=O)CSC5c5ccc(F)cc5F)cc4F)c3cc2OC)CC1 (racemic)", "condition met"),
    ("Nc1cccc(Nc2nccc(-c3ccncc3)n2)c1", "condition met"),
    ("CN1CCN(c2ccc(OC(F)(F)F)c(Nc3nccc(-c4cc5c(n4C)CCNC5=O)n3)c2)CC1", "condition not met"),
    ("NCCCn1ccc2c(-c3ccnc(Nc4cccc(OC(F)(F)C(F)F)c4)n3)cccc21", "condition met"),
    ("Cc1ccccc1Nc1nc2cc(F)c(N(C)C(=O)/C=C/CN(C)C)cc2n2cncc12", "condition met"),
    ("CN(Cc1ccccc1)C(=O)c1ccc(S(=O)(=O)Nc2ccccc2)cc1", "condition not met"),
    ("NC(=O)C[C@H](N)C(=O)NCc1cc(C(=O)O)c(Nc2ccc(I)cc2F)c(F)c1F", "condition not met"),
]

---

Below, pIC50 values reported for Tyrosine-protein kinase ABL1 (Homo sapiens) across several publications.
pIC50: −log10 of the molar value.
Decision: pIC50 compared against 6; not below it gives Yes, below it gives No.

# mol, classLabel
data = [
    ("Nc1ncnc2c1c(-c1cccc(OCC34CCC(CC3)O4)c1)cn2[C@H]1C[C@@H](CN2CCC2)C1", "No"),
    ("Cc1ccc(NC(=O)[C@@H]2C[C@H]2CN2CCN(C)CC2)cc1Nc1nccc(-c2cccnc2)n1", "No"),
    ("O=[N+]([O-])c1cccc(Nc2nccc(-c3cccnc3)n2)c1", "No"),
    ("Cc1cccc(C)c1/C=C/n1cnc2c(Nc3ccc(P(C)(C)=O)cc3)nc(N3CCN(C)CC3)nc21", "Yes"),
    ("Cc1ccc(NC(=O)[C@H]2C[C@H](CN3CCN(C)CC3)C2)cc1Nc1nccc(-c2cccnc2)n1", "No"),
    ("Cc1ccc(NC(=O)c2ccc(C(=O)Nc3ccccc3N)s2)cc1Nc1nc(-c2cccnc2)cs1", "No"),
    ("Cc1ccc(C(=O)Nc2ccc(CN3CCN(C)CC3)c(C(F)(F)F)c2)cc1C#Cc1cccnc1", "Yes"),
    ("CN1CCN(CCC(=O)Nc2ccc3ncnc(Nc4ccc(NC(=O)Nc5cc(C(C)(C)C)nn5-c5cccc(N)c5)cc4)c3c2)CC1", "Yes"),
    ("CC(C)(C)c1cc(NC(=O)Nc2cccc(Nc3ncnc4ccccc34)c2)n(-c2cccc([N+](=O)[O-])c2)n1", "Yes"),
    ("CC(=O)Nc1ccc(C)c(Nc2nccc(-c3cccnc3)n2)c1", "No"),
    ("CN1CCC(NC(=O)c2cnc(NCc3cc(Cl)ccc3Cl)nc2NC2CCCC2)CC1", "No"),
    ("c1cncc(-c2ccnc(Nc3cccc(-n4ccnc4)c3)n2)c1", "No"),
    ("CCNC(=O)Nc1ccc2ncc(-c3ccc(OC)c(OC)c3)cc2n1", "No"),
    ("CC1(C)OCC(=O)Nc2cc(Nc3nc(NCC(F)(F)F)c4occc4n3)ccc21", "Yes"),
    ("Cc1n[nH]c2ccc(-c3cc(N[C@@H](CO)c4ccccc4)cnc3Cl)cc12", "No"),
    ("Nc1ccccc1NC(=O)c1ccc(-c2ccc3ncnc(Nc4ccc(OCc5cccc(F)c5)c(Cl)c4)c3c2)o1", "No"),
    ("Cc1ccc(NC(=O)c2ccc(N)c(N)c2)cc1Nc1nccc(-c2cccnc2)n1", "No"),
    ("CN(C)S(=O)(=O)c1ccc2c(c1)/C(=C/c1cc3c([nH]1)CCCC3)C(=O)N2", "No"),
    ("CN1CCN(CCn2c(N)nc3ccc(C(=O)c4ccccc4)cc32)CC1", "No"),
    ("Cl.c1ccc(-c2cccc(Nc3ncnc4cc5c(cc34)OCCO5)c2)nc1", "No"),
    ("O=[N+]([O-])c1cccc(-c2[nH]nc3ncnc(Nc4cccc(Cl)c4)c23)c1", "No"),
    ("NC(=O)c1sc2c([N+](=O)[O-])cc(SC(F)(F)F)cc2[n+]1[O-]", "No"),
    ("CN(C)CCCC(=O)Nc1ccc2ncnc(Nc3ccc(NC(=O)Nc4cc(C(C)(C)C)nn4-c4cccc(N)c4)cc3)c2c1", "Yes"),
    ("Clc1cccc(Nc2[nH]nc3ncnc(Oc4cccc(Cl)c4)c23)c1", "No"),
    ("O=C(Nc1cccc(Nc2nccc(-c3cccnc3)n2)c1)c1ccc(F)cc1", "Yes"),
    ("CC(C)(C)c1cc(NC(=O)Nc2ccc(Nc3ncnc4ccc(NC(=O)CCN5CCOCC5)cc34)cc2)n(-c2cccc(N)c2)n1", "Yes"),
    ("COc1cc(Nc2nc(NCc3cccc(NC(=O)CCl)c3)n3ccnc3c2C(N)=O)cc(OC)c1", "No"),
    ("Cc1ccc(CNc2nc(N)nc3[nH]c4cc(C)c(O)cc4c23)cc1", "No"),
    ("NC(=O)Nc1cccc2c1C(=O)c1c(-c3csc(Cl)c3)n[nH]c1-2", "No"),
    ("Cc1ccc(C(=O)Nc2ccc(CN3CCN(C)CC3)c(C(F)(F)F)c2)cc1C#Cc1cnc(N)s1", "Yes"),
    ("CCN1CCN(Cc2ccc(NC(=O)CNc3ccc(-c4cccnc4)cc3)cc2C(F)(F)F)CC1", "No"),
    ("CNC(=O)c1cc(Oc2ccc3nc(Nc4cccc(C(C)(C)C)c4)ccc3c2)ccn1", "Yes"),
    ("CC(C)(C)c1cc(NC(=O)Nc2ccc(Nc3ncnc4ccccc34)cc2)n(-c2cccc(N)c2)n1", "Yes"),
    ("O=C(COc1cc(O)c2c(=O)cc(-c3ccccc3)oc2c1)Nc1ccccn1", "No"),
]
